biological target: α-glucosidase I (Rattus norvegicus); construct: Purified α-glucosidase I and II were purified from rat liver by known methods; from tissue; host or cells: rat liver; assay: In vitro inhibition of purified α-glucosidase I, 2-AA-labeled FOS substrates, HPLC; assay type: biochemical; settings: α-Glucosidase I Glc3Man9GlcNAc1 IC50, nonamannose substrate Glc3Man9GlcNAc1
Sequence (O88941 whole entry): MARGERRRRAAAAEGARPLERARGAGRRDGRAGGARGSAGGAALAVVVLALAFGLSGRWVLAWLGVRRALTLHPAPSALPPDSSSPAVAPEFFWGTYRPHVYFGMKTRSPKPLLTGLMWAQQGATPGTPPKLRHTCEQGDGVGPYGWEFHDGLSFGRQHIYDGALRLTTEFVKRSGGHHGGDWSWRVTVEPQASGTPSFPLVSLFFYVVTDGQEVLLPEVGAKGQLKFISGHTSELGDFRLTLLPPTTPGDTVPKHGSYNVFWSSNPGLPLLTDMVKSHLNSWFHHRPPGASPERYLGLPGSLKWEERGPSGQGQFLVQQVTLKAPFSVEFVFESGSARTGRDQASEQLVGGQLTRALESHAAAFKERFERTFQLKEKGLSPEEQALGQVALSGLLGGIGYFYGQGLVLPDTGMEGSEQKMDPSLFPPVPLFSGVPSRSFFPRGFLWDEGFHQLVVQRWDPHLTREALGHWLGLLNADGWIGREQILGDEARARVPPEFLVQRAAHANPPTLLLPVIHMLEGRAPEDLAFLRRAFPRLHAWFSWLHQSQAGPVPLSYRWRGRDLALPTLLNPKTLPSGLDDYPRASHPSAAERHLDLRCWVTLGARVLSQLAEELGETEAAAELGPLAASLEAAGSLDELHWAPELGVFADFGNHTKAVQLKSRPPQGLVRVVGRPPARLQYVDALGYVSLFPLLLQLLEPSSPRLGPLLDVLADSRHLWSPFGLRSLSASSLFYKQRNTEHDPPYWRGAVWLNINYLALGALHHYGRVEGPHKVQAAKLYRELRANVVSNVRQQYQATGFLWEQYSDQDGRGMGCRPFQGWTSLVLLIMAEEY
pIC50: −log10 of the molar value.
readout name: pIC50

- molecule: "[N-]=[N+]=Nc1ccc(NCCCCCCN2C[C@H](O)[C@@H](O)[C@H](O)[C@H]2CO)c([N+](=O)[O-])c1 [NAP-DNJ]"
  system tested: "α-glucosidase I (Rattus norvegicus)"
  readout name: "pIC50"
  reported result: 7.66

Values compiled from patent US8975280B2.
